- System: 313798-341-R-J2-PDC spheroids, viability;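 note: spheroids exposed to compounds for seven days; 100% = DMSO vehicle control viability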
- measurementNotes: Anticancer human tumor 313798-341-R-J2-PDC patient-derived cervical squamous cell carcinoma cell line growth inhibition [PI3K]
- conditions: second compound 0.1 µM; first compound 0.1 µM; hits give low values; spheroids with HUVEC and MSC
testReadout: viability, T/C (%)

compound	val
CCN1CCN(Cc2ccc(Nc3ncc(F)c(-c4cc(F)c5nc(C)n(C(C)C)c5c4)n3)nc2)CC1 + Cc1nc(NC(=O)N2CCCC2C(N)=O)sc1-c1ccnc(C(C)(C)C(F)(F)F)c1	104
CC(C)NCC(C(=O)N1CCN(c2ncnc3c2C(C)CC3O)CC1)c1ccc(Cl)cc1 (stereo unspecified) + CC(Nc1ncnc2nc[nH]c12)c1cc2cccc(Cl)c2c(=O)n1-c1ccccc1	103
Cn1nccc1Nc1nccc(-c2ccn(C(CO)c3ccc(Cl)c(F)c3)c(=O)c2)n1 (stereo unspecified) + Cc1nc(NC(=O)N2CCCC2C(N)=O)sc1-c1ccnc(C(C)(C)C(F)(F)F)c1	103
CC1(C)CCC(CN2CCN(c3ccc(C(=O)NS(=O)(=O)c4ccc(NCC5CCOCC5)c([N+](=O)[O-])c4)c(Oc4cnc5[nH]ccc5c4)c3)CC2)=C(c2ccc(Cl)cc2)C1 + COc1c(OCCCN2CCOCC2)ccc2c3n(c(=NC(=O)c4cnc(N)nc4)nc12)CCN3	41.4
CC1(C)CCC(Nc2ncc(C(F)(F)F)c(-c3c[nH]c4c(P(C)(C)=O)c(C#N)ccc34)n2)CN1 (stereo unspecified) + CC(Nc1ncnc2nc[nH]c12)c1cc2cccc(Cl)c2c(=O)n1-c1ccccc1	49.3
Cn1ncc(Cl)c1-c1cc(C(=O)NC(CN)Cc2cccc(F)c2)sc1Cl (stereo unspecified) + COc1c(OCCCN2CCOCC2)ccc2c3n(c(=NC(=O)c4cnc(N)nc4)nc12)CCN3	43.5
CCN1CCN(Cc2ccc(Nc3ncc(F)c(-c4cc(F)c5nc(C)n(C(C)C)c5c4)n3)nc2)CC1 + CC(Nc1ncnc2nc[nH]c12)c1cc2cccc(Cl)c2c(=O)n1-c1ccccc1	113
C#Cc1c(F)ccc2cc(O)cc(-c3ncc4c(N5CC6CCC(C5)N6)nc(OCC56CCCN5CC(F)C6)nc4c3F)c12 (stereo unspecified) + COc1c(OCCCN2CCOCC2)ccc2c3n(c(=NC(=O)c4cnc(N)nc4)nc12)CCN3	47.7
Cn1ncnc1[C@H]1c2n[nH]c(=O)c3cc(F)cc(c23)N[C@@H]1c1ccc(F)cc1 + CC(Nc1ccc2c(c1)OCCn1cc(N3C(=O)OCC3C(F)F)nc1-2)C(N)=O	72.8
CNC(=O)c1ccc(N2C(=S)N(c3ccc(C#N)c(C(F)(F)F)c3)C(=O)C2(C)C)cc1F + CC(Nc1ccc2c(c1)OCCn1cc(N3C(=O)OCC3C(F)F)nc1-2)C(N)=O	92
Cn1nccc1Nc1nccc(-c2ccn(C(CO)c3ccc(Cl)c(F)c3)c(=O)c2)n1 (stereo unspecified) + COc1c(OCCCN2CCOCC2)ccc2c3n(c(=NC(=O)c4cnc(N)nc4)nc12)CCN3	43.3

Hey, just so you know, these numbers are from PubChem BioAssay AID1963982.
